Measured values drawn from PubChem BioAssay AID1918998 for this set.

Collected viability, T/C values appear next to each entry.
Tested on: 521955-158-R2-J5-PDC complex spheroid growth
Assay: Anticancer human tumor 521955-158-R2-J5-PDC patient-derived pancreatic carcinoma cell line growth inhibition [AhR]
Details: second compound 0.1 µM; first compound 0.001 µM; stronger effect = lower value
Express it in %; write the number only.

Sample answers from the record:
[
  {
    "compound": "Cn1ncnc1C1c2n[nH]c(=O)c3cc(F)cc(c23)NC1c1ccc(F)cc1 (stereo not drawn) + CC(CO)NC(=O)c1cc(-c2ccc(Cl)cc2)nn(-c2cnn(C)c2)c1=O",
    "quantity_kind": "viability, T/C",
    "readout_number": 112
  },
  {
    "compound": "CC[C@@]1(O)C(=O)OCc2c1cc1n(c2=O)Cc2cc3c(CN(C)C)c(O)ccc3nc2-1 + CC(CO)NC(=O)c1cc(-c2ccc(Cl)cc2)nn(-c2cnn(C)c2)c1=O",
    "quantity_kind": "viability, T/C",
    "readout_number": 91.6
  }
]

Consider the additional compound presented here.
*Q* Quick one: viability, T/C for CC[C@@]1(O)C(=O)OCc2c1cc1n(c2=O)Cc2cc3c(CN(C)C)c(O)ccc3nc2-1 + Cc1cncc(-c2nc(NCCc3c[nH]c4ccccc34)c3ncn(C(C)C)c3n2)c1 ?
*A* 95.6

###

System: 521955-158-R2-J5-PDC complex spheroid growth
Assay: Anticancer human tumor 521955-158-R2-J5-PDC cell line growth inhibition [AhR]; active = viability on the fitted dose curve at most 10% of control; inactive = the rest
Conditions: second compound 0.1 µM; first compound 0.03 µM
The reply should name one outcome from active, inactive

Observe how each entry below is paired with its result.
[
  {
    "molecule": "CCc1c2c(nc3ccc(O)cc13)-c1cc3c(c(=O)n1C2)COC(=O)[C@]3(O)CC + Cc1cncc(-c2nc(NCCc3c[nH]c4ccccc34)c3ncn(C(C)C)c3n2)c1",
    "label_class": "inactive"
  },
  {
    "molecule": "CC(C)CC(NC(=O)C(Cc1ccccc1)NC(=O)c1cnccn1)B(O)O (configuration not stated) + Cc1ccccc1N=Nc1ccc(NC(=O)c2ccnn2C)c(C)c1",
    "label_class": "active"
  },
  {
    "molecule": "CCN(c1cc(-c2ccc(CN3CCOCC3)cc2)cc(C(=O)NCc2c(C)cc(C)[nH]c2=O)c1C)C1CCOCC1 + Cc1ccccc1N=Nc1ccc(NC(=O)c2ccnn2C)c(C)c1",
    "label_class": "inactive"
  },
  {
    "molecule": "CCc1c2c(nc3ccc(O)cc13)-c1cc3c(c(=O)n1C2)COC(=O)[C@]3(O)CC + Cc1ccccc1N=Nc1ccc(NC(=O)c2ccnn2C)c(C)c1",
    "label_class": "inactive"
  },
  {
    "molecule": "O=C(C=Cn1cnc(-c2cc(C(F)(F)F)cc(C(F)(F)F)c2)n1)NNc1cnccn1 + CC(CO)NC(=O)c1cc(-c2ccc(Cl)cc2)nn(-c2cnn(C)c2)c1=O",
    "label_class": "inactive"
  },
  {
    "molecule": "Nc1ncn(C2CC(O)C(CO)S2)c(=O)n1 (configuration not stated) + CC(CO)NC(=O)c1cc(-c2ccc(Cl)cc2)nn(-c2cnn(C)c2)c1=O",
    "label_class": "inactive"
  }
]

Turning to the following molecule.
*Q* Dear all, I need the recorded test outcome for CC(C)CC(NC(=O)C(Cc1ccccc1)NC(=O)c1cnccn1)B(O)O (configuration not stated) + CC(CO)NC(=O)c1cc(-c2ccc(Cl)cc2)nn(-c2cnn(C)c2)c1=O , thank you.
*A* active

###

Test system: 521955-158-R2-J5-PDC complex spheroid growth
Test: Anticancer human tumor 521955-158-R2-J5-PDC cell line growth inhibition [AhR];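 for viability, T/C: spheroids mix tumor cells with HUVEC endothelium and human MSC stroma; luminescence taken as viability surrogate after a week of drug exposure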
Conditions: second compound 10 µM; first compound 0.00949 µM; stronger effect = lower value
quantity_kind: viability, T/C

[
  {
    "compound": "Nc1ncn(C2CC(O)C(CO)S2)c(=O)n1 (stereo not given) + Cc1cncc(-c2nc(NCCc3c[nH]c4ccccc34)c3ncn(C(C)C)c3n2)c1",
    "viability, T/C": "105%"
  },
  {
    "compound": "CC(C)CC(NC(=O)C(Cc1ccccc1)NC(=O)c1cnccn1)B(O)O (stereo not given) + CC(CO)NC(=O)c1cc(-c2ccc(Cl)cc2)nn(-c2cnn(C)c2)c1=O",
    "viability, T/C": "3.86%"
  },
  {
    "compound": "O=C(C=Cn1cnc(-c2cc(C(F)(F)F)cc(C(F)(F)F)c2)n1)NNc1cnccn1 + CC(CO)NC(=O)c1cc(-c2ccc(Cl)cc2)nn(-c2cnn(C)c2)c1=O",
    "viability, T/C": "52.7%"
  },
  {
    "compound": "Nc1ncn(C2CC(O)C(CO)S2)c(=O)n1 (stereo not given) + Cc1ccccc1N=Nc1ccc(NC(=O)c2ccnn2C)c(C)c1",
    "viability, T/C": "157%"
  }
]

*Q* Lab note: need viability, T/C with 521955-158-R2-J5-PDC complex spheroid growth for entry CCN(c1cc(-c2ccc(CN3CCOCC3)cc2)cc(C(=O)NCc2c(C)cc(C)[nH]c2=O)c1C)C1CCOCC1 + Cc1ccccc1N=Nc1ccc(NC(=O)c2ccnn2C)c(C)c1 , please look it up.
*A* 164%

###

Test system: 521955-158-R2-J5-PDC complex spheroid growth
Assay: Anticancer human tumor 521955-158-R2-J5-PDC cell line growth inhibition [AhR]
Conditions: curve of first compound; second compound 0.1 µM
Source text: Multicellular complex tumor spheroid response to aryl hydrocarbon receptor antagonists in combination with a variety of drugs and investigational agents in selected tumor cell lines […] Compounds. […] If the clinical Cmax for an agent had not been determined, the highest concentration tested was 10 microM (Table 1). […]
Collected IC50 values appear next to each entry.
Express it in nM; write the number only.

[
  {
    "compound": "O=C(C=Cn1cnc(-c2cc(C(F)(F)F)cc(C(F)(F)F)c2)n1)NNc1cnccn1 + Cc1cncc(-c2nc(NCCc3c[nH]c4ccccc34)c3ncn(C(C)C)c3n2)c1",
    "IC50 [nM]": 218
  }
]

*Q* Quick one: IC50 for O=C(C=Cn1cnc(-c2cc(C(F)(F)F)cc(C(F)(F)F)c2)n1)NNc1cnccn1 + Cc1ccccc1N=Nc1ccc(NC(=O)c2ccnn2C)c(C)c1 ?
*A* 40.1

*Q* CC(C)CC(NC(=O)C(Cc1ccccc1)NC(=O)c1cnccn1)B(O)O (stereo unspecified) + Cc1ccccc1N=Nc1ccc(NC(=O)c2ccnn2C)c(C)c1 , same question.
*A* 16.1

*Q* O=C(C=Cn1cnc(-c2cc(C(F)(F)F)cc(C(F)(F)F)c2)n1)NNc1cnccn1 + CC(CO)NC(=O)c1cc(-c2ccc(Cl)cc2)nn(-c2cnn(C)c2)c1=O , same question.
*A* 81.6

*Q* CC(C)CC(NC(=O)C(Cc1ccccc1)NC(=O)c1cnccn1)B(O)O (stereo unspecified) + CC(CO)NC(=O)c1cc(-c2ccc(Cl)cc2)nn(-c2cnn(C)c2)c1=O , same question.
*A* 4.38

*Q* Nc1ccccc1NC(=O)c1ccc(CNC(=O)OCc2cccnc2)cc1 + CC(CO)NC(=O)c1cc(-c2ccc(Cl)cc2)nn(-c2cnn(C)c2)c1=O , same question.
*A* 4560

###

Collected viability, T/C values appear next to each entry.
Test system: 521955-158-R2-J5-PDC complex spheroid growth
Assay: Anticancer human tumor 521955-158-R2-J5-PDC cell line growth inhibition [AhR];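 for viability, T/C: spheroids mix tumor cells with HUVEC endothelium and human MSC stroma; luminescence taken as viability surrogate after a week of drug exposure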
Details: second compound 1 µM; first compound 3.16 µM; stronger effect = lower value
Express it in %; write the number only.

Sample answers from the record:
[
  {
    "molecule": "COc1ccc([C@@H](O)c2cc(-c3ncnc4cc(N5CCOCC5)ccc34)c(F)cc2Cl)nn1 + CC(CO)NC(=O)c1cc(-c2ccc(Cl)cc2)nn(-c2cnn(C)c2)c1=O",
    "measured_target": "521955-158-R2-J5-PDC complex spheroid growth",
    "viability, T/C [%]": 61.7
  },
  {
    "molecule": "O=C(c1cc(Cc2n[nH]c(=O)c3ccccc23)ccc1F)N1CCN(C(=O)C2CC2)CC1 + CC(CO)NC(=O)c1cc(-c2ccc(Cl)cc2)nn(-c2cnn(C)c2)c1=O",
    "measured_target": "521955-158-R2-J5-PDC complex spheroid growth",
    "viability, T/C [%]": 83.7
  },
  {
    "molecule": "Nc1ccccc1NC(=O)c1ccc(CNC(=O)OCc2cccnc2)cc1 + Cc1cncc(-c2nc(NCCc3c[nH]c4ccccc34)c3ncn(C(C)C)c3n2)c1",
    "measured_target": "521955-158-R2-J5-PDC complex spheroid growth",
    "viability, T/C [%]": 73.4
  }
]

*Q* Lab note: need viability, T/C with 521955-158-R2-J5-PDC complex spheroid growth for entry O=C(c1cc(Cc2n[nH]c(=O)c3ccccc23)ccc1F)N1CCN(C(=O)C2CC2)CC1 + Cc1ccccc1N=Nc1ccc(NC(=O)c2ccnn2C)c(C)c1 , please look it up.
*A* 93
